Numbers sourced from patent US20220204611A1.

Attribute: binding signal fold over 6E7 parental
Biological target: T1, human TREM2 (human, UniProt Q9NZC2 19-174, limits assumed)
T1 sequence: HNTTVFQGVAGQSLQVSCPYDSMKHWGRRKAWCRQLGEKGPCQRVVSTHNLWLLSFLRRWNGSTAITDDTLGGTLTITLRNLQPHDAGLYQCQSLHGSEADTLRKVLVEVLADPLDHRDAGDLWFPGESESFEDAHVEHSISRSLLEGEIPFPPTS
Assay: yeast-displayed Fab FACS, 1st screen 10 nM
Response body: numeric value in fold, unit text excluded.

Answered examples (2):
[[record]]
binder = "V14 (Fab, V domains shown) VH: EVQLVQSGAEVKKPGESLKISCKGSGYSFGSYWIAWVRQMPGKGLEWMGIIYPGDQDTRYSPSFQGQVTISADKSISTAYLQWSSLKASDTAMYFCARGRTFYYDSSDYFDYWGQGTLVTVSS VL: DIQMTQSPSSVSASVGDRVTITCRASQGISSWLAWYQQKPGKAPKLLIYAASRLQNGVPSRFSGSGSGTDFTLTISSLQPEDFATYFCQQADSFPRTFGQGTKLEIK"
measured = 4.71

[[record]]
binder = "V17 (Fab, V domains shown) VH: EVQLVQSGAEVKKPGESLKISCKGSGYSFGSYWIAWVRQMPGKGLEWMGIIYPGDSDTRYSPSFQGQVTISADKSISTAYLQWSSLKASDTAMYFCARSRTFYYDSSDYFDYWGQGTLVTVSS VL: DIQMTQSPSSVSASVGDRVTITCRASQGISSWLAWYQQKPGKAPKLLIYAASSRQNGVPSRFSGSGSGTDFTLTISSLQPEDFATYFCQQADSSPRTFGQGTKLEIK"
measured = 5.37


In the following, a different binder is considered.
Challenge: Answer with the recorded binding signal fold over 6E7 parental for the binder listed here: V88 (Fab, V domains shown) VH: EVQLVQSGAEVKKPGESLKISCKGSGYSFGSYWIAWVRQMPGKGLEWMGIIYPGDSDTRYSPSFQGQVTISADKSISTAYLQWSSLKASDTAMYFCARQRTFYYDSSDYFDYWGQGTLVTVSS VL: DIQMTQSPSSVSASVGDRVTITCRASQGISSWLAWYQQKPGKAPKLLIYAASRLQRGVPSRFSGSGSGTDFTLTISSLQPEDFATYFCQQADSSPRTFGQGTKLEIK
Response given: 4.92
